meta.source: patent US10392368B2

Test system: IL-2 stimulated pSTAT5 in Tall-1 T cells
Assay: Cellular JAK3 potency assay: inhibition of IL-2 stimulated pSTAT5 in Tall-1 T cells
Assay type: cell-based, human
Settings: Homo sapiens, TALL-1, IL-2 stimulated pSTAT5 in Tall-1 T cells; read-out: Tall-1 (pIC50) (converted)
Metric name: IC50

# example entries with known answers
C=CC(=O)N1CC[C@H](COc2cc(-c3ccc(O)cc3)cc3[nH]nnc23)C1
31.6 to 200 nM
C=CC(=O)N1C[C@@H](Oc2cc(-c3ccc(O)cc3)nc3[nH]ncc23)C[C@H]1C
31.6 to 200 nM
C=CC(=O)N1CC(COc2nc(-c3ccc(O)c(F)c3)nc3[nH]ncc23)C1
31.6 to 200 nM
C=CC(=O)N1CC[C@H](Oc2cc(-c3ccc(O)c(F)c3F)cc3[nH]ncc23)C1
31.6 to 200 nM
C=CC(=O)N1CC[C@H](Oc2cc(-c3ccc(O)c(Cl)c3)cc3[nH]ncc23)C1
< 31.6 nM
C=CC(=O)N1CC[C@H](Oc2cc(-c3ccc(O)cc3)cc3[nH]nc(C#N)c23)C1
< 31.6 nM
C=CC(=O)N1CC[C@H](Oc2nc(-c3ccc(O)c(Cl)c3)nc3[nH]nc(C)c23)C1
200 to 1000 nM
CN1CCC[C@H]1/C=C/C(=O)N1CC(COc2cc(-c3ccc(O)cc3)cc3[nH]ncc23)C1
31.6 to 200 nM

Next item in the queue.
// IC50 lookup, molecule = C=CC(=O)N1CC[C@H](Oc2cc(-c3ccc(O)cc3)nc3[nH]nc(C)c23)C1 , result: 31.6 to 200 nM

###

Target: JAK2 (Homo sapiens, UniProt O60674)
Construct: GST; purchased Life Technologies
Sequence (O60674 whole entry): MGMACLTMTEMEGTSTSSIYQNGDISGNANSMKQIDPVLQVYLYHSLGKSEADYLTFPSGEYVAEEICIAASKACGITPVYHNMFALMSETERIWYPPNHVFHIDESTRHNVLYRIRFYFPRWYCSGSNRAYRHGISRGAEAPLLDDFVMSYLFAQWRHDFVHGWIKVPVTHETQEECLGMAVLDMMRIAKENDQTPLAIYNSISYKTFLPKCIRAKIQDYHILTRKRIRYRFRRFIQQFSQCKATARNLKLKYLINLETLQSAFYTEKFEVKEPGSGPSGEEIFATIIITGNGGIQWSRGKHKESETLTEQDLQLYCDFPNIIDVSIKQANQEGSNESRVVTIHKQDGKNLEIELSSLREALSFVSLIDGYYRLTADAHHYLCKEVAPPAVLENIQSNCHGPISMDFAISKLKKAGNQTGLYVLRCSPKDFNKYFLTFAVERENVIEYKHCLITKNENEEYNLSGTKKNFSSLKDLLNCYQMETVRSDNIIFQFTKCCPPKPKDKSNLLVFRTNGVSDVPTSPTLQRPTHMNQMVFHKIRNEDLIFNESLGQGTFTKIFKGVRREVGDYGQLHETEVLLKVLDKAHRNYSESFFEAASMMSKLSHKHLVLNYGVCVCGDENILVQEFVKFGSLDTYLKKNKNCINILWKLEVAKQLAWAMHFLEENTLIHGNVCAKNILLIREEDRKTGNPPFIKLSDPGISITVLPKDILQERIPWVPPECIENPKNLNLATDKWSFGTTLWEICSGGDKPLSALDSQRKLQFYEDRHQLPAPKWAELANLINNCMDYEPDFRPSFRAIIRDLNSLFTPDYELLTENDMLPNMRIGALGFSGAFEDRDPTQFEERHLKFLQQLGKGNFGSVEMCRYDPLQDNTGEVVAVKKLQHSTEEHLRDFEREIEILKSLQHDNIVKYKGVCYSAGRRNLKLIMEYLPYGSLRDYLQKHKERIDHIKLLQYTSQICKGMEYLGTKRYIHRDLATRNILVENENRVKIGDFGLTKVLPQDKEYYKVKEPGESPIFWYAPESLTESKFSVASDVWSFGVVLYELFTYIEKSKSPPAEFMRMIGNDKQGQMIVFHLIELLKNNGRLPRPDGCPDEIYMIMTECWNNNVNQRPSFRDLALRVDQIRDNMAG
Experiment: Biochemical JAK2 kinase assay (LanthaScreen)
Conditions: read-out: JAK 2 (pKi) (converted)
Recorded Ki by entry

CN(C)C/C=C/C(=O)N1CC(F)(COc2nc(-c3ccc(O)cc3)nc3[nH]ncc23)C1 [Compound 3-88]
> 0.1 µM

Looking up C=CC(=O)N1CCC(Oc2cc(-c3ccc(O)c(Cl)c3)nc3[nH]ncc23)CC1 [Compound 6-17] , I see its Ki listed as > 0.1 µM

Record summary for C=CC(=O)N1CC(C#N)(C(=O)Nc2cc(-c3ccc(O)cc3)cc3[nH]ncc23)C1 [Compound 12-47] : reported Ki = > 0.1 µM

Measured Ki of C=CC(=O)N1CC[C@H](Oc2cc(-c3ccc(O)cc3)nc3[nH]nc(C)c23)C1 [Compound 1-31] : > 0.1 µM

Recorded Ki (compound C=CC(=O)N1CC(COc2cc(-c3ccc(O)c(C)c3)cc3[nH]ncc23)C1 [Compound 18-9] ): > 0.1 µM

Entry C=CC(=O)N1CC[C@H](Oc2cc(-c3c(F)cc(O)cc3F)cc3[nH]ncc23)C1 [Compound 1-18] , Ki reported as 0.01 to 0.1 µM

For this compound ( CCSCCNC/C=C/C(=O)N1CC(COc2cc(-c3ccc(O)cc3)cc3[nH]ncc23)C1 [Compound 3-126] ), measured Ki is 0.01 to 0.1 µM

Field Ki (entry C=CC(=O)N1CC[C@H](Oc2nc(-c3ccc(O)c(F)c3)nc3[nH]nc(C)c23)C1 [Compound 1-38] ) reads > 0.1 µM

Lab note: measured Ki of C=CC(=O)N1CCSC(C(=O)Nc2cc(-c3ccc(O)cc3)cc3[nH]ncc23)C1 (stereo not drawn) [Compound 12-42] was 0.01 to 0.1 µM

# Ki of C=CS(=O)(=O)N1CC[C@H](Oc2cc(-c3ccc(O)cc3)cc3[nH]ncc23)C1 [Compound 18] = 0.01 to 0.1 µM

For this compound ( C=CC(=O)N1CC(C#N)(COc2cc(-c3ccc(O)c(Cl)c3)cc3[nH]ncc23)C1 [Compound 3-22] ), measured Ki is > 0.1 µM

Record C=CC(=O)N1CC(F)(COc2nc(-c3ccc(O)c(F)c3)nc3[nH]ncc23)C1 [Compound 3-93] . Reported Ki: > 0.1 µM

###

Biological target: JAK3 (Homo sapiens)
Sequence (P52333 1-1124): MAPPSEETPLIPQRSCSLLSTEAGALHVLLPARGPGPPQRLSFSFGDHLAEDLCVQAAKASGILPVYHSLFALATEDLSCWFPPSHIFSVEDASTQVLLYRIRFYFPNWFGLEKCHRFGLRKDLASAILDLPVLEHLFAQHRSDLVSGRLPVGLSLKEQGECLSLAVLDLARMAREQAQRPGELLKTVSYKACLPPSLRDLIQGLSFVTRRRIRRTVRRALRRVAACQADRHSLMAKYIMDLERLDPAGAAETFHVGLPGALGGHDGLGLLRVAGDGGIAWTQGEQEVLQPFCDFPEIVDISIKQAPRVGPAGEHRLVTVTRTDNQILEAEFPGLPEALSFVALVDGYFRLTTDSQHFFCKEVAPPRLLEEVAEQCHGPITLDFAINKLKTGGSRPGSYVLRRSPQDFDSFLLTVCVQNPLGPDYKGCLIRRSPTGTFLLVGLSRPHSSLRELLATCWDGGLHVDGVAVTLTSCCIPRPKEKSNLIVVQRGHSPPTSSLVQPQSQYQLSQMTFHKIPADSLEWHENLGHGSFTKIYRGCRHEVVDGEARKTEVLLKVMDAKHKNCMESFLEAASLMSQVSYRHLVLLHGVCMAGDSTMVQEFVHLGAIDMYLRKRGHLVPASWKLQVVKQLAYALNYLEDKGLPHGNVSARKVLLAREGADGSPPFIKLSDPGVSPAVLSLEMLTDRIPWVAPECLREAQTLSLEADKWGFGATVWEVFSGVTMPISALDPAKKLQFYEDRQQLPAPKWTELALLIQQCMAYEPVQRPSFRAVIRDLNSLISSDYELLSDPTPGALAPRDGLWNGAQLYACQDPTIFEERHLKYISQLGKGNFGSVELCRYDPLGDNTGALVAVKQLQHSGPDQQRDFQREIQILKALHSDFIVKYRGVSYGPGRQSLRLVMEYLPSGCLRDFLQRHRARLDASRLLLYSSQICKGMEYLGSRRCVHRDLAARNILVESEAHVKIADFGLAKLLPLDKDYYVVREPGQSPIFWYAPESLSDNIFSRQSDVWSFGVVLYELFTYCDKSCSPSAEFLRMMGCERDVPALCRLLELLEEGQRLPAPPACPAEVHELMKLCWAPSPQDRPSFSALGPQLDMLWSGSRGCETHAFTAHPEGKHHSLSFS
Assay: Biochemical JAK3 kinase assay (LanthaScreen)
Parameters: GST; purchased Life Technologies
Conditions: selectivity JAK3 over JAK1, difference of pKi
Method: A panel of four LanthaScreen JAK biochemical assays (JAK1, 2, 3 and Tyk2) were carried in a common kinase reaction buffer (50 mM HEPES, pH 7.5, 0.01% Brij-35, 10 mM MgCl2, and 1 mM EGTA). […] Serially or discretely diluted compounds were pre-incubated with each of the four JAK enzymes and the substrate in white 384-well microplates (Corning) at ambient temperature for 1 h. […] The plates were allowed to incubate at ambient temperature for 1 h before being read on the EnVision reader (Perkin Elmer). […]
Metric name: JAK3 (pKi)-JAK1 (pKi)

C=CC(=O)N1CCSC(C(=O)Nc2cc(-c3ccc(O)cc3)cc3[nH]ncc23)C1 (stereo not shown) [Compound 12-42]
B (a value of 2.3 to 3)
C=CC(=O)N1C2CCC1CC(Oc1cc(-c3ccc(O)cc3)cc3[nH]ncc13)C2 (stereo not shown) [Compound 10-2]
B (a value of 2.3 to 3)
CN(C)CC=CC(=O)N1CCCC(Oc2cc(-c3ccc(O)c(F)c3)cc3[nH]ncc23)C1 (stereo not shown)
B (a value of 2.3 to 3)

###

Overview of reported IC50 across a group of compounds:
Tested on: IL-2 stimulated pSTAT5 in Tall-1 T cells
Experiment: Cellular JAK3 potency assay: inhibition of IL-2 stimulated pSTAT5 in Tall-1 T cells
Format: cell-based, human
Conditions: Homo sapiens, TALL-1, IL-2 stimulated pSTAT5 in Tall-1 T cells; read-out: Tall-1 (pIC50) (converted)

C=CC(=O)N1CC(C#N)(COc2nc(-c3ccc(O)c(F)c3)nc3[nH]ncc23)C1
0.0316 to 0.2 µM
C=CC(=O)N1CC(C#N)(COc2nc(-c3ccc(O)c(Cl)c3)nc3[nH]ncc23)C1
0.0316 to 0.2 µM

Quick note, IC50 for COC1(COc2cc(-c3ccc(O)c(F)c3)cc3[nH]ncc23)CN(C(=O)/C=C/CN(C)C)C1 landed at < 0.0316 µM

# compound C=CC(=O)N1CC[C@H](Oc2cc(-c3ccc(O)c(F)c3Cl)cc3[nH]ncc23)C1 ; its IC50 = 0.0316 to 0.2 µM

IC50 measured on C=CC(=O)N1CC(COc2nc(-c3ccc(O)c(Cl)c3)nc3[nH]ncc23)C1 = 0.0316 to 0.2 µM

Reported IC50 of C=CC(=O)N1CC(C#N)(COc2nc(-c3ccc(O)cc3)nc3[nH]ncc23)C1 : < 0.0316 µM
